- TARGET UNDER TEST: rat mGlu2 (Rattus norvegicus (Rat))
- TEST DESCRIPTION: mGlu2 Ca2+ flux assay
- Format: cell-based
- SETTINGS: amplitude of response in the presence of 30 μM test compound as percentage of maximal response to glutamate; read-out: rat mGlu2 Glu max
OBSERVABLE: remaining activity at 30 µM (%)

COc1ccc(-c2cc(C(N)=O)ncc2OCc2ccnc(C)c2)c(F)c1 : 1.65
NC(=O)c1cc(-c2ccc(F)cc2)c(OCCOc2cc(F)cc(F)c2)cn1 : 38.7
N#Cc1cc(COc2cnc(C(N)=O)cc2-c2ccc(F)cc2)ccc1F : 0.43

I: NC(=O)c1cc(-c2ccc(F)cc2)c(OCc2cccnc2)cn1
II: NC(=O)c1cc(-c2ccc(F)cc2)c(OC2CCN(c3ccnc(C(F)(F)F)c3)C2)cn1 (stereo not drawn)
III: N#Cc1cc(F)cc(OCCOc2cnc(C(N)=O)cc2-c2ccc(F)cc2)c1
IV: COc1ccc(-c2cc(C(N)=O)ncc2OCc2ccc(C)nc2)c(F)c1
Query :: Rank descending by remaining activity at 30 µM. Field: ranking. Enter the labels in the order requested.
Result :: I, II, III, IV
(I: 5.84%, II: 2.39%, III: 1.58%, IV: 1%)

a: N#Cc1cncc(OCCOc2cnc(C(N)=O)cc2-c2ccc(F)cc2)c1
b: N#Cc1ccccc1COc1cnc(C(N)=O)cc1-c1ccc(F)cc1
Query :: Which has the higher remaining activity at 30 µM, a or b ? Write down the label of the entry you select.
Result :: a

###

- TARGET UNDER TEST: UniProtKB P31421
- TEST DESCRIPTION: mGlu2 Ca2+ flux assay
- SETTINGS: Gα15 HEK293 cells stably expressing rat mGlu2; glutamate EC80; >10,000 = no plateau; >30,000 = no measurable activity
- Method: Gα15 HEK293 cells stably expressing rat mGlu2 were plated in black-walled, clear-bottomed, poly-D-lysine coated 384-well plates in 20 μL of assay medium (DMEM containing 10% dialyzed FBS, 20 mM HEPES, and 1 mM sodium pyruvate) at a density of 12K cells/well. […] Ca^2+ flux was measured using the Functional Drug Screening System (FDSS7000, Hamamatsu, Japan). […] Calcium fluorescence measures were recorded as fold over basal fluorescence; raw data was then normalized to the maximal response to glutamate. […]
OBSERVABLE: IC50 (µM)

Worked cases, IC50 given:
CC(Oc1cnc(C(N)=O)cc1-c1ccc(F)cc1)c1cccnc1 (stereo not shown) : 2.71
N#Cc1cccc(COc2cnc(C(N)=O)cc2-c2ccc(F)cc2)c1 : 0.429
NC(=O)c1cc(-c2ccc(F)cc2)c(N2CCC(Oc3ccnc(C(F)(F)F)c3)C2)cn1 (stereo not shown) : 7.45

P: CC(Oc1cnc(C(N)=O)cc1-c1ccc(F)cc1)c1ccncc1 (stereo not shown)
Q: NC(=O)c1cc(-c2ccc(F)cc2)c(OCCOc2cccnc2)cn1
R: COc1ccc(COc2cnc(C(N)=O)cc2-c2ccc(F)cc2)cn1
S: Cc1ccc(OC(C)COc2cnc(C#N)cc2-c2ccc(F)cc2)cn1 (stereo not shown)
Query :: # ascending order, key=IC50 Field: ranking. Enter the labels in the order requested.
Result :: R, P, Q, S

A: NC(=O)c1cc(-c2ccc(F)cc2)c(OCc2cccnc2)cn1
B: NC(=O)c1cc(-c2ccc(F)cc2)c(COc2cc(F)cc(F)c2)cn1
C: NC(=O)c1cc(-c2ccc(F)cc2)c(OCCOc2cc(F)cc(Br)c2)cn1
Query :: # ascending order, key=IC50 Field: ranking. Enter the labels in the order requested.
Result :: A, B, C

###

- TARGET UNDER TEST: rat mGlu2 (Rattus norvegicus (Rat), UniProt P31421)
- Sequence (P31421 19-872): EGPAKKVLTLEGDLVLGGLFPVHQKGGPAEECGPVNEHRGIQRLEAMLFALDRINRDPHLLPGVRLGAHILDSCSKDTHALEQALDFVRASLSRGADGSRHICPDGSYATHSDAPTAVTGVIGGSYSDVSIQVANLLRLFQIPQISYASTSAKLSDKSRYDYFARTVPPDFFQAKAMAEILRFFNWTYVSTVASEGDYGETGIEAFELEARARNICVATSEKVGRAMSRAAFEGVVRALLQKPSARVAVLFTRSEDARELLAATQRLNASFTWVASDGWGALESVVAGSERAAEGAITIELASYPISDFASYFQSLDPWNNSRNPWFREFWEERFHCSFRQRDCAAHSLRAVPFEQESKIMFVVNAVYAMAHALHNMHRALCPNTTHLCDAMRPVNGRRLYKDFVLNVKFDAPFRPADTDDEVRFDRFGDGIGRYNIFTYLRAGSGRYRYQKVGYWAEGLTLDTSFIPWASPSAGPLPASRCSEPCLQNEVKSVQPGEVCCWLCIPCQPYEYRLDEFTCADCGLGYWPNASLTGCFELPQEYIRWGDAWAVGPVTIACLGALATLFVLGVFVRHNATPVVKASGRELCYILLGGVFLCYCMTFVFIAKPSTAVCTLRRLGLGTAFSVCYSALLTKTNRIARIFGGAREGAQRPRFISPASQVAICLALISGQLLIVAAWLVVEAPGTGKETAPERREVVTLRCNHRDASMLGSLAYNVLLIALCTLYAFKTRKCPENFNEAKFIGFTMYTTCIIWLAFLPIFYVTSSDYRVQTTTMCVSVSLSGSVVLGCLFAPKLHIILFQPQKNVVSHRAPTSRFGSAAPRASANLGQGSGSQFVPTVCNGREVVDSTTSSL
- TEST DESCRIPTION: mGlu2 Ca2+ flux assay
- Format: cell-based
- SETTINGS: Gα15 HEK293 cells stably expressing rat mGlu2; glutamate EC80; >10,000 = no plateau; >30,000 = no measurable activity
pIC50: −log10 of the molar value.
OBSERVABLE: pIC50

I: NC(=O)c1cc(-c2ccc(F)cc2)c(OCc2ccc(Cl)nc2)cn1 [Compound 8]
II: NC(=O)c1cc(-c2ccc(F)cc2)c(OCc2cccc(Br)c2)cn1 [Compound 34]
Query :: When the recorded pIC50 values are compared, which is smaller: that of I or that of II ? Write down the label of the entry you select.
Result :: II

a: NC(=O)c1cc(-c2ccc(F)cc2)c(OCCOc2cccc(F)c2)cn1 [Compound 108]
b: NC(=O)c1cc(-c2ccc(F)cc2)c(OCCOc2cc(Br)ccc2F)cn1 [Compound 101]
Query :: When the recorded pIC50 values are compared, which is smaller: that of a or that of b ? Write down the label of the entry you select.
Result :: b
(b: 5.37, a: 5.62)

I: CC(COc1cnc(C(N)=O)cc1-c1ccc(F)cc1)Oc1cccnc1 (stereo not drawn) [Compound 123]
II: N#Cc1ccccc1COc1cnc(C(N)=O)cc1-c1ccc(F)cc1 [Compound 150]
Query :: When the recorded pIC50 values are compared, which is smaller: that of I or that of II ? Write down the label of the entry you select.
Result :: I

###

- TARGET UNDER TEST: rat mGlu2 (Rattus norvegicus (Rat), UniProt P31421)
- TEST DESCRIPTION: mGlu2 Ca2+ flux assay
- Type: cell-based
- SETTINGS: amplitude of response in the presence of 30 μM test compound as percentage of maximal response to glutamate; read-out: rat mGlu2 Glu max
OBSERVABLE: remaining activity at 30 µM (%)

Worked cases, remaining activity at 30 µM given:
N#Cc1cc(F)cc(COc2cnc(C(N)=O)cc2-c2ccc(F)cc2)c1 [Compound 146] : 0.48
NC(=O)c1cc(-c2ccc(F)cc2)c(OCc2ccccc2Br)cn1 [Compound 35] : 1.55

I: NC(=O)c1cc(-c2ccc(F)cc2)c(OCc2cccc(Br)c2)cn1 [Compound 34]
II: NC(=O)c1cc(-c2ccc(F)cc2)c(OCCOc2ccnc(C(F)(F)F)c2)cn1 [Compound 116]
Query :: When the recorded remaining activity at 30 µM values are compared, which is smaller: that of I or that of II ? Write down the label of the entry you select.
Result :: II

###

Here the recorded IC50 is given for each entry.
- TARGET UNDER TEST: rat mGlu2 (Rattus norvegicus (Rat), UniProt P31421)
- TEST DESCRIPTION: mGlu2 Ca2+ flux assay
- SETTINGS: Gα15 HEK293 cells stably expressing rat mGlu2; glutamate EC80; >10,000 = no plateau; >30,000 = no measurable activity

Worked cases, IC50 given:
CC1CN(CCCOc2cnc(C(N)=O)cc2-c2ccc(F)cc2)CCO1 (stereo not drawn) : > 10 µM
Cc1ccc(COc2cnc(C#N)cc2-c2ccc(F)cc2)cn1 : > 30 µM
NC(=O)c1cc(-c2ccc(F)cc2)c(COc2ccnc(C(F)(F)F)c2)cn1 : 0.477 µM
N#Cc1cc(-c2ccc(F)cc2)c(OCCCOc2ccc(C(F)(F)F)nc2)cn1 : > 30 µM
CC1(C)CN(CCCOc2cnc(C(N)=O)cc2-c2ccc(F)cc2)CCO1 : 3.25 µM
NC(=O)c1cc(-c2ccc(F)cc2)c(OCc2cc(Br)ccc2F)cn1 : 0.65 µM

Query :: Respond only with IC50 recorded for `CN(CCN1CCOCC1)c1cnc(C(N)=O)cc1-c1ccc(F)cc1`
Result :: > 10 µM

Query :: Respond only with IC50 recorded for `Cn1ccc(COc2cnc(C#N)cc2-c2ccc(F)cc2)n1`
Result :: > 10 µM

Query :: Respond only with IC50 recorded for `N#Cc1cc(-c2ccc(F)cc2)c(OCCN2CCOCC2)cn1`
Result :: > 30 µM

###

- TARGET UNDER TEST: rat mGlu2 (Rattus norvegicus (Rat), UniProt P31421)
- TEST DESCRIPTION: mGlu2 Ca2+ flux assay
- SETTINGS: Gα15 HEK293 cells stably expressing rat mGlu2; glutamate EC80; >10,000 = no plateau; >30,000 = no measurable activity
OBSERVABLE: IC50 (nM)

CC(CNc1cnc(C(N)=O)cc1-c1ccc(F)cc1)N1CCOCC1 (stereo not drawn) : 5700
NC(=O)c1cc(-c2ccc(F)cc2)c(OCCOCc2ccccc2)cn1 : 2250
N#Cc1cncc(OCCOc2cnc(C(N)=O)cc2-c2ccc(F)cc2)c1 : 691

a: NC(=O)c1cc(-c2ccc(F)cc2)c(OCCOc2cncc(Br)c2)cn1
b: NC(=O)c1cc(-c2ccc(F)cc2)c(OCc2ccc(Br)cc2)cn1
Query :: Which has the higher IC50, a or b ? Write down the label of the entry you select.
Result :: b

###

- TARGET UNDER TEST: rat mGlu2 (Rattus norvegicus (Rat), UniProt P31421)
- TEST DESCRIPTION: mGlu2 Ca2+ flux assay
- SETTINGS: Gα15 HEK293 cells stably expressing rat mGlu2; glutamate EC80; >10,000 = no plateau; >30,000 = no measurable activity
OBSERVABLE: IC50 (nM)

NC(=O)c1cc(-c2ccc(F)cc2)c(NCCN2CCOCC2)cn1 [Compound 133] : 6540
NC(=O)c1cc(-c2ccc(F)cc2)c(NCC2CCOCC2)cn1 [Compound 132] : 1050
NC(=O)c1cc(-c2ccc(F)cc2)c(OC2CCN(c3ccnc(C(F)(F)F)c3)C2)cn1 (stereo not drawn) [Compound 57] : 2120
COc1ccc(-c2cc(C(N)=O)ncc2OCc2ccc(C)nc2)c(F)c1 [Compound 83] : 216
Cn1cc(COc2cnc(C(N)=O)cc2-c2ccc(F)cc2)cn1 [Compound 53] : 1000

P: CN(CCOc1cnc(C(N)=O)cc1-c1ccc(F)cc1)c1ccnc(C(F)(F)F)c1 [Compound 55]
Q: NC(=O)c1cc(-c2ccc(F)cc2)c(OCCOc2cccc(Br)c2)cn1 [Compound 106]
R: COc1ccc(-c2cc(C(N)=O)ncc2OCc2cc(F)cc(F)c2)c(F)c1 [Compound 31]
S: NC(=O)c1cc(-c2ccc(F)cc2)c(OCc2ccc(C(F)(F)F)nc2)cn1 [Compound 43]
Query :: # ascending order, key=IC50 Field: ranking. Enter the labels in the order requested.
Result :: R, S, P, Q
(R: 395 nM, S: 717 nM, P: 1580 nM, Q: 3440 nM)
